# Organism: Bos taurus
# assayMethodText: In vitro rumen propionic acid test procedure, 50 ug/mL
# Type: functional
// classify: if (Stimulation < 0.5%) 1 (yes) else 0 (no)

Q) Check if Stimulation falls below 0.5% for Cc1cc(C(C)(C)CC(C)(C)C)cc2c1OCCOCCOCc1cccc(c1C(=O)O)COCCOCCO2 .
A) 0 (no)

Q) Check if Stimulation falls below 0.5% for Cc1cc(C(C)(C)CC(C)(C)C)cc2c1OCCOCCOCc1cc(Br)cc(c1C(=O)O)COCCOCCO2 .
A) 0 (no)

Q) Check if Stimulation falls below 0.5% for COCc1cc(C(C)(C)CC(C)(C)C)cc2c1OCCOCCOCc1cc(C(C)(C)C)cc(c1C(=O)O)COCCOCCO2 .
A) 0 (no)

Q) Check if Stimulation falls below 0.5% for O=C(O)c1c2cccc1COCCOCCOCCOCCOCCOC2 .
A) 1 (yes)

Q) Check if Stimulation falls below 0.5% for CC(C)c1cc(C(C)(C)CC(C)(C)C)cc2c1OCCOCCOCc1cc(C(C)(C)C)cc(c1C(=O)O)COCCOCCO2 .
A) 0 (no)

Q) Check if Stimulation falls below 0.5% for O=C(O)c1c2cccc1COCCOCCOc1ccccc1OCCOCCOC2 .
A) 1 (yes)

Q) Check if Stimulation falls below 0.5% for CC(C)(C)CC(C)(C)c1cc(Cc2ccccc2)c2c(c1)OCCOCCOCc1cc(C(C)(C)C)cc(c1C(=O)O)COCCOCCO2 .
A) 0 (no)

Q) Check if Stimulation falls below 0.5% for COc1cc2c(C(=O)O)c(c1)COCCOCCOc1c(C)cc(C(C)(C)CC(C)(C)C)cc1OCCOCCOC2 .
A) 1 (yes)
